targetOrSystem: human uPAR (uPAR-Fc) (Homo sapiens)
Construct: comprising amino acids Leu23-Arg303 according to UniProt entry Q03405.1; purchased R&D Systems 10378-UK-100
Sequence (Q03405 23-303): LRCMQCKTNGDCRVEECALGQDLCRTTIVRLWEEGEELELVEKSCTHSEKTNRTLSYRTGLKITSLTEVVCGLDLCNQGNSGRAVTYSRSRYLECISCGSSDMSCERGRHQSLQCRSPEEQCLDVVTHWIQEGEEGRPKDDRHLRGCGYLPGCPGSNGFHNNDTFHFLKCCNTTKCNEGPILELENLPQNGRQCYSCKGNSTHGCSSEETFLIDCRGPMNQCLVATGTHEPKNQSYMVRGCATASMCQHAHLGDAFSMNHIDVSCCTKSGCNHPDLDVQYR
testDetails: Surface plasmon resonance (SPR) assay, single cycle kinetics
Type: binding
conditionParameters: pKD category for uPAR SPR activity assay; uPAR-Fc on Protein A-Chip, 25°C; read-out: pKD CAT (converted)
*1 amine or outer side, *2 acyl side, *3 side chain or, on linkers, in order; H or OH if unused. Where a SMILES comes first, the peptide text is derived from it. Bridges are numbered along the chain shown (N, C = ends). Side-chain parts run from the residue outwards. [ ]: non-standard residue; d: D form. The star is where a group is joined. DOTA = O=C(O)CN1CCN(CC(=O)O)CCN(CC(=O)*)CCN(CC(=O)O)CC1; PEG12 = NCCOCCOCCOCCOCCOCCOCCOCCOCCOCCOCCOCCOCCC(=O)O; Oic = O=C(O)[C@@H]1C[C@@H]2CCCC[C@@H]2N1; Pro(cis-4-F) = O=C(O)[C@@H]1C[C@H](F)CN1; Dopa = N[C@@H](Cc1ccc(O)c(O)c1)C(=O)O; Hyp = O=C(O)[C@@H]1C[C@@H](O)CN1; 3Pal = N[C@@H](Cc1cccnc1)C(=O)O; Pentanoyl(4-Me) = CC(C)CCC(=O)*; Cit = NC(=O)NCCC[C@H](N)C(=O)O; Butoxycarbonyl = CCCCOC(=O)*; Propanoyl(3-OH) = O=C(CCO)*; X9 = OC[C@H](CS[*:1])N[*:2]; Pip = O=C(O)[C@@H]1CCCCN1; Nle = CCCC[C@H](N)C(=O)O; Nva = CCC[C@H](N)C(=O)O; Pentanoyl = CCCCC(=O)*; CO = O=C([*:1])[*:2]; NHBu = CCCCN*
property: Kd

## Input Need Kd of CC[C@H](C)[C@@H]1NC(=O)[C@@H](C)NC(=O)[C@@H]2CCCCN2C(=O)[C@H](Cc2ccccc2)NC(=O)[C@H](Cc2ccc(O)cc2)NC(=O)[C@H](CCC(N)=O)NC(=O)[C@H](CCCNC(N)=O)NC(=O)[C@@H](NC(=O)CCC(C)C)CSSC[C@@H](C(N)=O)NC(=O)[C@H](CC(C)C)NC1=O [UPAR-232] ({Pentanoyl(4-Me)}-C[Cit]QYF[Pip][dA]ILC-NH2; disulfide 1-10) , thanks.
## Output 1.58 to 10 nM

## Input Need Kd of CCCCNC(=O)N[C@H]1CSSC[C@@H](C(N)=O)NC(=O)[C@H](CCC)NC(=O)[C@H]([C@@H](C)CC)NC(=O)[C@@H]2C[C@@H](O)CN2C(=O)[C@@H]2CCCN2C(=O)[C@H](Cc2ccccc2)NC(=O)[C@H](Cc2ccc(O)cc2)NC(=O)[C@H](CCCCNC(=O)CN2CCN(CC(=O)O)CCN(CC(=O)O)CCN(CC(=O)O)CC2)NC(=O)[C@H]([C@@H](C)O)NC1=O [UPAR-242] ({NHBu-CO}-CTK(DOTA)YFP[Hyp]I[Nva]C-NH2; disulfide 1-10) , thanks.
## Output < 1.58 nM

## Input Need Kd of CCCCC(=O)N[C@H]1CSSC[C@@H](C(N)=O)NC(=O)[C@H](CCC)NC(=O)[C@H]([C@@H](C)CC)NC(=O)[C@@H]2C[C@@H](O)CN2C(=O)[C@@H]2CCCN2C(=O)[C@H](Cc2ccccc2)NC(=O)[C@H](Cc2ccc(O)cc2)NC(=O)[C@H](CCCCNC(=O)CCOCCOCCOCCOCCOCCOCCOCCOCCOCCOCCOCCOCCNC(=O)CN2CCN(CC(=O)O)CCN(CC(=O)O)CCN(CC(=O)O)CC2)NC(=O)[C@H](CCCNC(N)=O)NC1=O [UPAR-200] (Pentanoyl-C[Cit]K([PEG12-DOTA])YFP[Hyp]I[Nva]C-NH2; disulfide 1-10) , thanks.
## Output < 1.58 nM

## Input Need Kd of CC[C@H](C)[C@@H]1NC(=O)[C@@H](C)NC(=O)[C@@H]2CCCN2C(=O)[C@H](Cc2ccccc2)NC(=O)[C@H](Cc2ccc(O)cc2)NC(=O)[C@H](CCC(N)=O)NC(=O)[C@H](CCCNC(N)=O)NC(=O)[C@@H](NC(=O)CCO)CSSC[C@@H](C(N)=O)NC(=O)[C@H](CC(C)C)NC1=O [UPAR-272] ({Propanoyl(3-OH)}-C[Cit]QYFP[dA]ILC-NH2; disulfide 1-10) , thanks.
## Output > 100 nM

## Input Need Kd of CC[C@H](C)[C@@H]1NC(=O)[C@@H](C)NC(=O)[C@@H]2CCCN2C(=O)[C@H](Cc2ccccc2)NC(=O)[C@H](Cc2ccc(O)cc2)NC(=O)[C@H](CCC(=O)O)NC(=O)[C@H](CCCNC(N)=O)NC(=O)[C@@H](NC(=O)CCC(C)C)CSSC[C@@H](C(N)=O)NC(=O)[C@H](CC(C)C)NC1=O [UPAR-255] ({Pentanoyl(4-Me)}-C[Cit]EYFP[dA]ILC-NH2; disulfide 1-10) , thanks.
## Output < 1.58 nM

## Input Need Kd of CCCCC(=O)N[C@H]1CSSC[C@@H](C(N)=O)NC(=O)[C@H](CCC)NC(=O)[C@H]([C@@H](C)CC)NC(=O)[C@@H]2C[C@@H]3CCCC[C@@H]3N2C(=O)[C@@H]2CCCN2C(=O)[C@H](Cc2ccccc2)NC(=O)[C@H](Cc2ccc(O)cc2)NC(=O)[C@H](CCC(N)=O)NC(=O)[C@H](CCCNC(=N)N)NC1=O [UPAR-190] (Pentanoyl-CRQYFP[Oic]I[Nva]C-NH2; disulfide 1-10) , thanks.
## Output < 1.58 nM

## Input Need Kd of CCCCOC(=O)N[C@H]1CSSC[C@@H](C(N)=O)NC(=O)[C@H](CCC)NC(=O)[C@H]([C@@H](C)CC)NC(=O)[C@@H]2C[C@@H](O)CN2C(=O)[C@@H]2C[C@H](F)CN2C(=O)[C@H](Cc2ccccc2)NC(=O)[C@H](Cc2cccnc2)NC(=O)[C@H](CCCCNC(=O)CN2CCN(CC(=O)O)CCN(CC(=O)O)CCN(CC(=O)O)CC2)NC(=O)[C@H]([C@@H](C)O)NC1=O [UPAR-165] (Butoxycarbonyl-CTK(DOTA)[3Pal]F[Pro(cis-4-F)][Hyp]I[Nva]C-NH2; disulfide 1-10) , thanks.
## Output < 1.58 nM

## Input Need Kd of CCCC[C@@H]1NC(=O)[C@H](CCCNC(=N)N)NC(=O)[C@@H](NC(=O)[C@@H](CC(C)C)NC(=O)[C@H](CC(=O)O)NC(C)=O)CSSC[C@@H](C(N)=O)NC(=O)[C@H](CC(C)C)NC(=O)[C@H]([C@@H](C)CC)NC(=O)[C@H](C)NC(=O)[C@@H]2CCCN2C(=O)[C@H](Cc2ccccc2)NC(=O)[C@H](Cc2ccc(O)cc2)NC1=O [UPAR-244] (Ac-D[dL]CR[Nle]YFPAILC-NH2; disulfide 3-12) , thanks.
## Output < 1.58 nM

## Input Need Kd of CC[C@H](C)[C@@H]1NC(=O)[C@@H](C)NC(=O)[C@@H]2CCCN2C(=O)[C@H](Cc2ccccc2)NC(=O)[C@H](Cc2ccc(O)c(O)c2)NC(=O)[C@H](CCC(N)=O)NC(=O)[C@H](CCCNC(N)=O)NC(=O)[C@@H](NC(=O)CCC(C)C)CSSC[C@@H](C(N)=O)NC(=O)[C@H](CC(C)C)NC1=O [UPAR-144] ({Pentanoyl(4-Me)}-C[Cit]Q[Dopa]FP[dA]ILC-NH2; disulfide 1-10) , thanks.
## Output < 1.58 nM

## Input Need Kd of CCCCC(=O)N[C@H]1CSSC[C@@H](CO)NC(=O)[C@H](CCC)NC(=O)[C@H]([C@@H](C)CC)NC(=O)[C@@H]2C[C@@H](O)CN2C(=O)[C@@H]2CCCN2C(=O)[C@H](Cc2ccccc2)NC(=O)[C@H](Cc2ccc(O)cc2)NC(=O)[C@H](CCC(N)=O)NC(=O)[C@H](CCCNC(N)=O)NC1=O [UPAR-292] (Pentanoyl-C[Cit]QYFP[Hyp]I[Nva]; linker 1-C via X9) , thanks.
## Output < 1.58 nM

====

targetOrSystem: human uPAR (uPAR-Fc) (Homo sapiens)
Construct: comprising amino acids Leu23-Arg303 according to UniProt entry Q03405.1; purchased R&D Systems 10378-UK-100
testDetails: Surface plasmon resonance (SPR) assay, single cycle kinetics
Format: binding
conditionParameters: pKD category for uPAR SPR activity assay; uPAR-Fc on Protein A-Chip, single cycle kinetics, 25°C; read-out: pKD CAT (converted)
Where a SMILES comes first, the peptide text is derived from it. Bridges are numbered along the chain shown (N, C = ends). [ ]: non-standard residue; d: D form. The star is where a group is joined. DOTA = O=C(O)CN1CCN(CC(=O)O)CCN(CC(=O)*)CCN(CC(=O)O)CC1; Hyp = O=C(O)[C@@H]1C[C@@H](O)CN1; Cit = NC(=O)NCCC[C@H](N)C(=O)O; Pen = CC(C)(S)[C@H](N)C(=O)O; Nva = CCC[C@H](N)C(=O)O; Pentanoyl = CCCCC(=O)*
Can you tell me Kd for the items I'm about to list?

## Input Need Kd of CCCCC(=O)N[C@H]1CSSC[C@@H](C(N)=O)NC(=O)[C@H](CCC)NC(=O)[C@H]([C@@H](C)CC)NC(=O)[C@@H]2CCCN2C(=O)[C@@H]2CCCN2C(=O)[C@H](Cc2ccccc2)NC(=O)[C@H](Cc2ccc(O)cc2)NC(=O)[C@H](CCCCNC(=O)CN2CCN(CC(=O)O)CCN(CC(=O)O)CCN(CC(=O)O)CC2)NC(=O)[C@H](CCCNC(N)=O)NC1=O [UPAR-473] (Pentanoyl-C[Cit]K(DOTA)YFPPI[Nva]C-NH2; disulfide 1-10) , thanks.
## Output < 1.58 nM

## Input Need Kd of CCCCC(=O)N[C@@H]1C(=O)N[C@@H](CCCNC(N)=O)C(=O)N[C@@H](CCC(N)=O)C(=O)N[C@@H](Cc2ccc(O)cc2)C(=O)N[C@@H](Cc2ccccc2)C(=O)N2CCC[C@H]2C(=O)N2C[C@H](O)C[C@H]2C(=O)N[C@@H]([C@@H](C)CC)C(=O)N[C@@H](CCC)C(=O)N[C@H](C(N)=O)CSSC1(C)C [UPAR-397] (Pentanoyl-[Pen][Cit]QYFP[Hyp]I[Nva]C-NH2; disulfide 1-10) , thanks.
## Output < 1.58 nM

## Input Need Kd of CCCCC(=O)N[C@H]1CSSC[C@@H](C(N)=O)NC(=O)[C@H](CC(C)C)NC(=O)[C@H]([C@@H](C)CC)NC(=O)[C@@H](C)NC(=O)[C@@H]2CCCN2C(=O)[C@H](Cc2ccccc2)NC(=O)[C@H](Cc2ccc(O)cc2)NC(=O)[C@H](CCC(N)=O)NC(=O)[C@H](CCCNC(N)=O)NC1=O [UPAR-362] (Pentanoyl-C[Cit]QYFP[dA]ILC-NH2; disulfide 1-10) , thanks.
## Output < 1.58 nM
